Tested on: IGROV1 ovarian
Experiment: NCI tumour cell line growth inhibition, 48 h
A collection of molecules and their measured TGI

molecule: COc1cccc2cc(C(C)=O)c(=O)oc12
TGI: > 100 µM

molecule: N#CCN(CC#N)C1CC=CCC1N(CC#N)CC#N (stereo unspecified)
TGI: > 100 µM

molecule: CC(C)(C)C1=CC(=C2C=Cc3ccccc3O2)C=C(C(C)(C)C)C1=O
TGI: > 52.8 µM

molecule: CCn1c2ccccc2c2ccc(C3C(C(=O)OC)=C(C)NC(C)=C3C(=O)OC)cc21
TGI: > 100 µM

molecule: COc1cc2c(cc1C1=NC(C)(C)CO1)OCO2
TGI: > 100 µM

molecule: CCOC(=O)/C=C/C(=O)[C@H](CC(C)C)NC(=O)[C@H](Cc1ccccc1)NC(=O)OCc1ccccc1
TGI: 4.89 µM

molecule: COC(=O)/C=C(\S/C=C(/c1ccccc1)N1CCn2c(C(=O)c3ccccc3)c(C(=O)OC)c(C(=O)OC)c21)C(=O)OC
TGI: > 10 µM

molecule: CCOC(=O)c1cnn2c3ccccc3n(S(=O)(=O)c3ccc(OC)cc3)c12
TGI: > 100 µM

molecule: CCOC(=O)C(O)(C(=O)OCC)c1cc(C(C)(C)C)c(O)c(C(C)(C)C)c1
TGI: > 100 µM

molecule: CC1=C[C@H]2C[C@H](C)[C@H]3CC[C@H](C)[C@]4(C1)C(=O)C(O)=C(C)C(=O)[C@@]324
TGI: > 100 µM

molecule: CC/C=C/C[C@H](O)[C@H]1C[C@H]2O[C@H](CC(=O)OC)C[C@H]2O1
TGI: > 100 µM

molecule: COc1ccc(/C=C\c2cc(OC)c(OC)c(OC)c2)cc1OCC(=O)Nc1ccc2nc(C)sc2c1
TGI: 15.7 µM

molecule: COc1cc2c(=O)n(CCN(C)C)c3c4cc5c(cc4ccc3c2cc1OC)OCO5
TGI: 2.55 µM

molecule: Cn1c(=O)c2[nH]cnc2n(CC(N)=O)c1=O
TGI: > 100 µM

molecule: COc1ccc(N(/C=C/C(=O)C(F)(F)F)CC(=O)c2ccc(Cl)cc2)cc1
TGI: 21.7 µM

molecule: N#Cc1c(-c2ccc(Cl)cc2)c2c(N=Nc3c(O)ccc4ccccc34)[nH]nc2[nH]c1=O
TGI: 1.14 µM

molecule: CCOC(=O)CN1CC(C2=C(O)CN(CC(=O)OCC)C2=O)=CC1=O
TGI: > 100 µM

molecule: COc1ccc(Nc2nc3cc(N)cc(N)c3nc2-c2ccccc2)cc1OC
TGI: > 100 µM

molecule: Cc1nc2sccn2c1C(=O)NC(=O)Nc1ccc(Cl)cc1
TGI: > 100 µM

molecule: COc1cc2ccc1OCc1cccc(n1)COc1ccc(cc1OC)C=NCCNCCNCCN=C2
TGI: > 100 µM

molecule: NC(=O)c1c(NC=O)ncn1C1OCC(O)C(O)C1O (stereo unspecified)
TGI: > 100 µM

###

Values of GI50 reported for MDA-MB-435 appear below.
readout name: GI50

smiles str: Cc1cc(Nc2cc(N3CCN(C)CC3)nc(Sc3ccc(NC(=O)C4CC4)cc3)n2)n[nH]1
target or system: MDA-MB-435
result: 2110 nM

smiles str: O=S(=O)(Nc1ccc(F)c(Cl)c1)c1ccc(-c2cnc(C3CC3)o2)cc1
target or system: MDA-MB-435
result: 31.3 nM

smiles str: CC1=C[C@H]2C[C@H](C)[C@H]3CC[C@H](C)[C@]4(C1)C(=O)C(O)=C(C)C(=O)[C@@]324
target or system: MDA-MB-435
result: 41100 nM

Where do the numbers come from? From PubChem BioAssay (NCI).
